Assay Procedure: yeast display, Sf9 membrane polyspecificity reagent, FACS + sequencing; frameworks hold sequencing errors
Assay Metric: polyreactivity (PSR sort gate)

construct_sequence=QVQLVESGGGLVQAGGSLRLSCAASGRTFSGYAMGWYRQAPGKERELVAAITSSGSSTYYADSVKGRFTISRDNAKNTVYLQMNSQKPEDTSVYYCAATPQAHSERYYYQRKYDYWGQGTQVTVSS result="low polyreactivity"
construct_sequence=QVQLVESGGGLVQAGGSLRLSCAASGRIFGAYAMGWYRQAPGKERELVATITSDGSTDYADSVKGRFTISRDNAKNTVYLQMNSLKPEDTAVYYCAVAYLWRPYDFREFDYWGQGTQVTVSS result="low polyreactivity"

###

Assay Procedure: yeast display, Sf9 membrane polyspecificity reagent, FACS + sequencing; frameworks hold sequencing errors
Assay Metric: polyreactivity (PSR sort gate)

construct_sequence=QVQLVESGGGLVQAGGSLRLRCAASGSTFANYAMGWYRQAPGKERELVAAISVGDGSTYYADSVKGRFTISRDNAKNTVYLQMNILKPEDTAVYYCSRVRGGYDSWGQGTQVTVSS assay_metric="polyreactivity (PSR sort gate)" result="high polyreactivity"
construct_sequence=QVQLVESAGGLVQAGGILRLSCAASGGIFRGYAMGWYRQAPGKERELVATIRSSGRTNYADSVKGRFTISRDNAKNTVYLQMNSLKPEDTAVYYCNKRRWWQYDRWGDWVLGGDDYWGQGTQVTVSS assay_metric="polyreactivity (PSR sort gate)" result="low polyreactivity"
construct_sequence=QVQLVESGGGLVQAGGSLRLSCAASGRIFLDYAMGWYRQAPGKERELVAAIRYSGVGTYYADSVKGRFTISRDNAKNTVYLQMNSLKPEDTAVYYCNAVTKVGYLRRRDYWGQGTQVTVSS assay_metric="polyreactivity (PSR sort gate)" result="high polyreactivity"
construct_sequence=QVQLVESGGGLVQAGGSLRLSCAASGRTFGQYAMGWYRQAPGKERELVAAITGGGSTNYADSVKGRFTISRDNAKNTVYLHMNSLKPEDTAVYYCAAKARSYWYPRLYIYEGDYWGQGTQVTVSS assay_metric="polyreactivity (PSR sort gate)" result="low polyreactivity"
construct_sequence=QVQLVESGGGLVQAGGSLRLSCAASGRTFGRYAKGWSRQAPGKERELVAAISYSTDSTYYADSVKGRFTISRDNAKNTDYLQMNSLKPEYTAVYYCATDSVNVGSYVGDKHDYWGHGTQVTVSS assay_metric="polyreactivity (PSR sort gate)" result="low polyreactivity"
construct_sequence=QVQLVESGGGLVQAGGSLRLSCASSGRIFGSYAMGWYRQAPGKERELVAAISWRGTSTYYADSVKGRFTISRDNAKNTVYLQMNSLKPEDTAVYYCAARGLWPYDYWGQGTQVTVSS assay_metric="polyreactivity (PSR sort gate)" result="low polyreactivity"
construct_sequence=QVQLVESGVGLVQAGGSLSLSCAASGRTFAYNAMGWYRQAAGKERELVAAINGDGGSTYYADSVKGRFTISRDNAMNTDYLQMISLKPEDTAVYYCAADLKYDGAYDYWGQGTQVTVSS assay_metric="polyreactivity (PSR sort gate)" result="high polyreactivity"
construct_sequence=QVHLVESGGGLVQAGGSLRLTCAASGSTFVPYAMGWYRQAPGKERELVAAISTSSGGTYYADSVKGRFTISRDNEKNTVYLQMNSLKPEDTAVYYCAAELVYVPHWLIYDYWGQGTQVTVSS assay_metric="polyreactivity (PSR sort gate)" result="high polyreactivity"
construct_sequence=QVQLGESGGGLVQAGGSLRLSCAASGSIFYGYAMGWYRHAPGKERELVAAITRDGSTNYADSVKGRFTISLDNAKNTVYLQMNSLKPEDTAVYYCAADTRSRRLSLVRRDYWGQGTQVTVSS assay_metric="polyreactivity (PSR sort gate)" result="high polyreactivity"
construct_sequence=QVQLVESGGGLVQAGGSLRLSCAASGSIFYYNAMGWYSQAPGKERELVAAITGSGGSTYYADSVKGRFTISRDNAKNTVYLQMNSLKPEDTAVYYCAADYSLYGWWFRNDYWGQGTQVTVSS assay_metric="polyreactivity (PSR sort gate)" result="low polyreactivity"
construct_sequence=QVQLVESGGGLVQAGGSLRLSCAASGNTIRSYAMGWYRPAPGKERELVAAISGRGGSTYYADSVKGRFTISRDNAKNTVYLEMNSLKPEDTAVNYCAAESRRVNYANDYWGQGTEVTVSS assay_metric="polyreactivity (PSR sort gate)" result="high polyreactivity"
construct_sequence=QVQHVESGGGLVQAGGSLRLSCAASGSTFWFNAMGWYRQATGKVRELVAAITSGSTYYADSVKGRFTISRDNAKNTVYLPMNSLQPEYTAVYYCASTEFTFYYSYDYWAQGTQVTVSS assay_metric="polyreactivity (PSR sort gate)" result="low polyreactivity"
construct_sequence=QVQLVESGGGLVQAGGSHRLSCAPSGRTYYMYAMGWYRPAPGKEREFVAAITSGGSRNYADSVKGRFTISRDNAKKTVYLQMNSLKPEDTAVYYWARYRGYWGRYYGVDYGYWGQGTQVTVSS assay_metric="polyreactivity (PSR sort gate)" result="high polyreactivity"
construct_sequence=QVQLVESGGGLVQAGGSRRLSCAACGFIFEKNAMGWYRQAPGKERELVAAISGGGITNYADSVKGRFTISRDNEKKTVYLHMNSLKPQDTAVYYCAKTRRRLLTRYDYWGQGTQVTVSS assay_metric="polyreactivity (PSR sort gate)" result="low polyreactivity"
construct_sequence=QVQLHESAGGLVQAGGSLRLRCSASGYISCDASRGWYRQAPGKERELAASITKGSSTNYADSVKGRFTIRDNAKNTVYLQMNRLKPEDTAVCYCAVTYPYWGDYTYWGQGTQVTVSS assay_metric="polyreactivity (PSR sort gate)" result="low polyreactivity"
construct_sequence=QVQLVESGGGLVQAGGSLRLICAASGIILVYYDMGWYRQAPGKEMELVDTISRGGSTNYADSVMGRFTISRDNAKNTVYLQMISLKPEDTAVNYCAAGSYSIWVHLVRYYYWGQGTQVTVSS assay_metric="polyreactivity (PSR sort gate)" result="high polyreactivity"
construct_sequence=QVQQHESGDGLVQAVGSLRLTCAASGYISGNYYMGWYRQATGKERELVAGIDAFGSSTNYADCVKGRFTISRDNAKNTVYLQMNSLKPEDTAVYYCAARPDGDRLFYYWGQGTQVTVSS assay_metric="polyreactivity (PSR sort gate)" result="low polyreactivity"
construct_sequence=QFQLVESGGGLVQAGGSLRLSCAASGSIFANALGWYRQAPRKERELVAAISFSGGRTFYADSVKGRFTISRDNAKNTVYLQMNSLKPDDTTVYYCNKDYWGYFSYWKSYLYDYWGQGTQVTVSS assay_metric="polyreactivity (PSR sort gate)" result="high polyreactivity"
construct_sequence=QVQLVESGGCLVQAGGSLRLSSAASGRTFDHYAMGWYRQAPGKERELDAAITSGGSTYYADSVKGRFTISRDNAKNTVYLQMNSLKPEDTAVYYCNKDSSFWGSYIAQVNERDYWGQGTQVTVSS assay_metric="polyreactivity (PSR sort gate)" result="low polyreactivity"
construct_sequence=QVQLVESGGGLVQAGGSLRLSCAASGFTFRGYAMGWYRQAPGKERELVAVINTDGSTNYADSVKGRFTISRDNAKNTVYLQMNSLKPEDTAVYYCNAVRSSIGSDNDYWGQGTQVTVSS assay_metric="polyreactivity (PSR sort gate)" result="low polyreactivity"
construct_sequence=QVQLVESGGGLVQAGGSLRLSCAASGSIFAYKAKGWYRQAPGKEREFVAVITRSDDSTYAYSVKGRFTISRDNAKNPFYLQMNSLKAEDTAVYYCARRWSYLRPSLEYDSWGQGTQVTVSS assay_metric="polyreactivity (PSR sort gate)" result="low polyreactivity"

###

Assay Procedure: yeast display, Sf9 membrane polyspecificity reagent, FACS + sequencing; frameworks hold sequencing errors
Assay Metric: polyreactivity (PSR sort gate)

construct_sequence=QVQLVESAGGLVQAGGSLRLSGSASGIIIASNGMGWYRQPPGKERELVAAISSGGSTNYADSVKGRFTISRDNAKNTVYLQMNSLKPEDTAVYYCADDRWYREYDYWGQGTQVTVSS result="low polyreactivity"
construct_sequence=QVQLVESGGGLVQAGGSLRLSCAASGRTFVVYTMGWYRQAPGKERELVAAISWRGGTTYYADSVKGRFTISRDNAKNTVYLQMNSLKPEDTAVYYCAARVVYYYRERYYWGQGTQVTVSS result="high polyreactivity"
construct_sequence=QVQLVESCGGLVQAGGSLRLTCAASGSTFNWYTMGWYRQAPGKDRELVAAMSRGTGSTYYADSVKGRFTMSRDNANNRVYVQMNSLKPEDTAVYSCAKQGYRYSSFLYDYWGQGTQVTVSS result="low polyreactivity"
construct_sequence=QVQLVESGLGLVQAGGSLRLSCAASGRTFYYNAMGWYRQAPGKERELVAAISWSGGNTYYADSVKARFTISRDNAKNTVYLQMNSLKPEDTAVYYCAAVYRYYPGYDYWGHGTQVTVSS result="high polyreactivity"
construct_sequence=QVQLVESGGGLVQAGGSLRLSCAASGRIFGLYAMGWYRQAPGKERELVASISQSGANTYYADSVKGRFTISRDNAKNTVYLQMNCQKPEDTAVSYCAAKRYDRYYYWVGYWGQGTQVIVSS result="low polyreactivity"
construct_sequence=QVQLVESGGGLVQAGGSLRLSCAASGRTSIGYARGWYRQAPGKERELVAVISIGGTTYYADSVKGRFTISRDNAKNTVYLQMNSLKPEDTAVYYCAADSFPAYLGFVGFDYWGQGTQVTVSS result="low polyreactivity"
construct_sequence=QVQLVESGGGLVQAGGSLRLSCAASGSTLRGYTMGWYRQAPGKERELVAAISWSGASTYYADSVKGRFTISRDNAKNTVYLQMNSLKPEDTAVYYCYRAGRYVREYTVDYWGQGTQVTVSS result="high polyreactivity"
construct_sequence=QVQLVESGGGLVQSGGSLRLSCAASGFIFLSYAMGWYRQAPGKERELVAAISRRGGSTYYADSVKGRFTISRDNAKYTVYLQMNSLKPEDNAVYYCAADYGRITYNYWGQGTQVTVSS result="high polyreactivity"
construct_sequence=QVQLVESGGGLYQAGGSLRLSCAASGRIFYCYAMGSYRQAPGKERELVAAISWRGGRTYYADSVKGRFTISRDNAKNTVYLQMNSLIPEDTAVYYCNTDFPPQGQLRNMSYWGQGTQVTVSS result="high polyreactivity"
construct_sequence=QVQLVESGGGLVQAGGSLRLSCAASGFIFTWYTMGWYRQAPGKERELVAAITSGGNTNYADSVKGRFTISRDNAKNTVYLQMNSLKPEDTAVYYCARGYLASRLKFAKYDYWGQGTQVTVSS result="high polyreactivity"
construct_sequence=QVQLVESGGGLVQAGGSLRLSCAASGGTFRYNAKGWYRQAPGKERELFATISIRGASTYYADSVKGRITISRDNAKHSVYLQLNSLKPEDTAVFYCAAERRNSYVLLIKYNYWGQGTQVTVSS result="low polyreactivity"
